B1: TPR t1 (parent)
chain: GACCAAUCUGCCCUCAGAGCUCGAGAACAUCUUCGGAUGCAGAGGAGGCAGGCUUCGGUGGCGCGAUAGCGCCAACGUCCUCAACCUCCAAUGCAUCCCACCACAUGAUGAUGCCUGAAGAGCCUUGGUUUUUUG

Variants of: B1
experiment_notes: polymerase ribozyme fitness, log enrichment relative to wild type (log ratio); higher = more active; in vitro selection for triplet polymerase activity
Range-based classes on measured polymerase ribozyme fitness (log ratio): c1 = under -4, c2 = from -4 up to -2, c3 = -2 and over

Task: Class for GACCAAUCUGCCCUCAGAGCUCGAGAACAUCUUCGUAUGCAGAAGAGGCAGGCUUCGGUGGCGCGAUAGCGACAACGUCCUCAACCUCCAAUGGAUCCCACCACAUGAUGAUGCCUGAAGAGGCUUGGUUUUUUG ?
Output: c1

Task: Which polymerase ribozyme fitness (log ratio) category applies to GACCAAUCUGCCCUCAGAGCUCGAGAUCAUCUUCGGAUGCAGAGGACACAGGCUUCGGUGGCGCGAUAGCGCCAACGCCCUCAACCUCCAAUGCGUCCCACCACAUGAUGAUGCCUGAAGAGCCUUGGUUUUUUG here?
Output: c1

Task: Determine which band this variant sits in: GACCCAUCUGCGCUCAGAGCUCGAGAACAUCUUCGGAUGCAGAGGAGGAAGGCUUAGGUGGCGCGAUAGCGCCAACGUCCUCCACCUCCAAUGCAUCCCACCACAUGAUGAUGCCUGAAGAGCCUUGGUUUUUUG
Output: c3

Task: Textbook exercise: identify the category of the variant given here, GACCAAUCUGCCCUCAGAGCUCGAGAACAUCUUCGGAUGCAGAGGAGGCAGGCUUCGGUGGCGCGAUACCGCCAACGUCCUCAACGUCCAAUGCAUCCCACCACAUGAUGAUGCCUGAAGAGCCUUGGUUUUUUG , according to its measured value.
Output: c2

Task: For this variant, which bin applies? GACCAAUCUGCCCUCAGAGCUCGAGAACGUCUUCGGAUGCUGAGGAGGCAGGCUUCGGUGGCGCGAUAGCGCCAACGUCCUCAACCUCCAAUGCAUCCCACCACAUGAUGAUGCCUGAAGAGCCUUGGUUUUUUG
Output: c3

Task: Input GACCAAACUGCCCUCAGAGCUCGAGAACAUCUUCGGAUGCGGAGGAGGCAGGCUUCGGUGGCGCGCUAGCGCCAACGUCCUCAACCUCCAAUGCAUCCCACCACAUGAUGAUGCCUGAAGAGCCUUGGUUUUUUG ; output its category
Output: c3

Task: For GACCAAUCUGCCCUCAGAGCUCGAGAACACCUUCGGAUGCAGAGGAUGCAGGUAUCGGUGGCGCGAUAGCGCCAACGUCCUCAACCUCCAAUGCAUCCCACCACAUGAUGAUGCCUGAAGAGCCUUGGUUUUAUG , which polymerase ribozyme fitness (log ratio) bin applies?
Output: c1

Task: Please classify: GACCAAUCUGCCCUCAGAGCUCGAGAACAUCUUCGGAUGCAGAGGAGGCAGGCUUAGGUGGCGCGAUAGCGCCAACGUCCUCAACCUCCAAUGCAUCCCACCACAUGAUGAUCCCUGAAGAGCCUUGGUUUUUUG
Output: c3

Task: # bin lookup: classify GACCAAUCUGCCCUCAGAGCUUGAGAACAUCUUCGGAUGCAGAGGAGGCAGGCUUCGGUGGCGCGAUAGCGCCAACGUCCUCAACCUCCAAUGCAUCCCACCACAUGAUGAUGCCUGAAAAGCCUUGGUUUUUUG by its polymerase ribozyme fitness (log ratio)
Output: c2

Task: # bin label for GACCAAUCUGCCCUCAGAGCUCGAGAACAUCUUCGGAUGCAGAGGAGGCAGGUUUCGGUGGCGCGAUAGCGCCAACGUCCACAACCUCCAAUGCAUCCCACCACAUGAUGAUGCCUGAAGAGCCUUGGUUUUUUG
Output: c3

Task: Band for GACCAAUCUACCCUCAGAGCUCGAGAACAUCUUCGGAUGCAGAGGAGGCAGGCUUCGGUGGCGCGAUAGCACCAACGUCCUCCACCUCCAAUGCAUCCCACCACAAGUUGAUGCCUGAAGAGCCUUGGUUUUUUG ?
Output: c3

Task: Bin? GACCACUCUGCCCUCAGAGCUCGAGAACAUCUUCGGAUGCAGAGGAGGCUGGCUUCGGUGGCGCGAUAGCGCCAAGGUCCUCAACCUCCAAUGCAGCCCACCACAUGAUGAUGCCUGAAGAGCCUUGGUUUUUUG
Output: c2

Task: For GACCAAUCUGCCCUCAGAGCUCGAGAACAUCUUCGGAUGCAGAGGAGGCAGGCUUCGGUGACGCGAUAGCGCCAACGUCCUCGACCUCCAAUGCAUCCCACCACAUGAUGAUACCUGAAGAGCCUUGGUGUUUUG , which polymerase ribozyme fitness (log ratio) bin applies?
Output: c3
